PROCEDURE SUMMARY: HCV replicon assay (luciferase reporter, ET cell line)
Format: cell-based
STATED CONDITIONS: Hepatitis C virus, HCV replicon luciferase activity in ET cells
Each record here notes measured inhibition at 10 µM.

MOLECULE | inhibition at 10 µM (%)
O=C(c1nc2c(C(F)(F)F)cc(-c3ccoc3)cn2c1Cl)N1CC=C(c2nccs2)C1 [Compound 428] | 99.9
O=C(c1nc2c(C(F)(F)F)cc(-c3ccoc3)cn2c1Cl)N1CC(NS(=O)(=O)c2ccccc2)C1 [Compound 492] | 97.4
O=C(NCc1cccs1)c1nc2c(-c3ccoc3)cc(-c3ccccc3)cn2c1Cl [Compound 263] | 60.3
O=C(NCc1cccs1)c1nc2c(C(F)(F)F)cc(-c3cc[nH]c3)cn2c1Cl [Compound 279] | 95.8
O=C(c1nc2c(C(F)(F)F)cc(-c3ccoc3)cn2c1Cl)N1CC=C(c2ccsc2)C1 [Compound 425] | 99.3
O=C(NCc1cccs1)c1nc2c(C(F)(F)F)cc(-c3ccccc3)nn2c1Cl [Compound 249] | 81.4

---

PROCEDURE SUMMARY: HCV replicon assay (luciferase reporter, ET cell line)
Format: cell-based
STATED CONDITIONS: Hepatitis C virus, HCV replicon luciferase activity in ET cells
Procedure: A cell line, ET (Huh-lucubineo-ET) is used for screening of compounds for inhibiting HCV RNA dependent RNA polymerase. […] Luciferase activity is measured 48-72 hours later by adding a lysis buffer and the substrate (Catalog number Glo-lysis buffer E2661 and Bright-Glo luciferase system E2620 Promega, Madison, Wis.). […] Under the same condition, cytotoxicity of the compounds are determined using cell proliferation reagent, WST-1 (Roche, Germany). […]
Each record here notes measured inhibition at 10 µM.
READOUT TYPE: inhibition at 10 µM (%)

COMPOUND | UNIT | RESULT
O=C(NC(c1ccccc1)c1cccs1)c1nc2c(C(F)(F)F)cc(-c3ccoc3)cn2c1Cl (stereo not shown) | % | 90.5
O=C(c1nc2c(C(F)(F)F)cc(-c3ccoc3)cn2c1Cl)N1CC(NS(=O)(=O)c2ccccc2F)C1 | % | 88.5
O=C(NCc1cccnc1)c1nc2c(C(F)(F)F)cc(-c3ccco3)cn2c1Cl | % | 70.1
O=C(c1nc2c(C(F)(F)F)cc(-c3ccoc3)cn2c1Cl)N1CC=C(c2cc[nH]c2)CC1 | % | 67.9
Cc1n[nH]cc1-c1cc(C(F)(F)F)c2nc(C(=O)N3CCC(c4cccc(F)c4)C3)c(Cl)n2c1 (stereo not shown) | % | 59.8
O=C(Cc1nc2c(C(F)(F)F)cc(-c3ccoc3)cn2c1Cl)NCc1cccs1 | % | 65.8
COC(=O)c1cccc(C2CCN(C(=O)c3nc4c(C(F)(F)F)cc(-c5ccoc5)cn4c3Cl)C2)c1 (stereo not shown) | % | 87.6
N#Cc1c(F)ccc(F)c1C1=CCN(C(=O)c2nc3c(C(F)(F)F)cc(-c4ccoc4)cn3c2Cl)CC1 | % | 95.9
CS(=O)(=O)N1CC(NC(=O)c2nc3c(C(F)(F)F)cc(-c4ccoc4)cn3c2Cl)C1 | % | 24
O=C(c1nc2c(C(F)(F)F)cc(-c3ccoc3)cn2c1Cl)N1CCC(n2cc(-c3ccccc3)[nH]c2=O)CC1 | % | 43.6
Cc1ccccc1C1CCN(C(=O)c2nc3c(C(F)(F)F)cc(-c4ccoc4)cn3c2Cl)CC1 | % | 72.4
O=C(NCc1cccs1)c1nc2c(C(F)(F)F)cc(-c3cn[nH]c3)cn2c1Cl | % | 93.9
CCCCCc1nc(-c2cc(-c3ccoc3)cn3c(Cl)c(C(=O)NCc4cccs4)nc23)no1 | % | 35.4
CN(C)CCNC(=O)Cc1c(C(=O)N2CCC(c3ccc(F)cc3)C2)nc2c(C(F)(F)F)cc(-c3ccoc3)cn12 (stereo not shown) | % | 100
O=C(NCc1cncs1)c1nc2c(C(F)(F)F)cc(-c3ccoc3)cn2c1Cl | % | 85.2
O=C(NCCc1ccc(F)cc1)c1nc2c(C(F)(F)F)cc(-c3ccoc3)cn2c1Cl | % | 88
O=C(NCc1cccs1)c1nc2c(C(F)(F)F)cc(-c3cccc(F)c3)cn2c1-c1cn[nH]c1 | % | 79.9
O=C(c1nc2c(C(F)(F)F)cc(-c3cn[nH]c3)cn2c1Cl)N1CCC(c2ccccc2)C1 (stereo not shown) | % | 93.7
O=C(c1nc2c(C(F)(F)F)cc(-c3ccoc3)cn2c1Br)N1CCC(c2ccc(F)cc2)C1 (stereo not shown) | % | 98
O=C(NCc1ccccc1F)c1nc2c(C(F)(F)F)cc(-c3ccco3)cn2c1Cl | % | 72.4
O=C(NCc1cccc(F)c1)NCc1cn2cc(-c3ccoc3)cc(C(F)(F)F)c2n1 | % | 86.9
O=C(c1nc2c(C(F)(F)F)cc(-c3ccoc3)cn2c1Cl)N1CCC1c1ccccc1 (stereo not shown) | % | 94.2
N#Cc1c(F)cccc1C1=CCN(C(=O)c2nc3c(C(F)(F)F)cc(-c4ccoc4)cn3c2Cl)CC1 | % | 89.7
CCN(CC)C(=O)/C=C/c1cc(-c2ccccc2)cn2c(Cl)c(C(=O)NCc3cccs3)nc12 | % | 40.2
O=C(c1nc2c(C(F)(F)F)cc(-c3cn[nH]c3)cn2c1Cl)N1CCC(c2ccc(F)cc2)C1 (stereo not shown) | % | 86.9
